// data source = ChEMBL document CHEMBL3351465

- testMethodNotes: Tmax in Sprague-Dawley rat at 5 mg/kg, po
- Assay type: ADME, organism-based
- Design: dose 5 mg/kg, route oral
- particulars: in vivo
Listed here are compounds together with their documented Tmax.
quantity: Tmax (min)

{"smilesString": "COC(=O)N[C@H](C(=O)N1CCC[C@H]1c1ncc(-c2ccc(C34CCC(c5cnc([C@@H]6CCCN6C(=O)[C@@H](NC(=O)OC)C(C)C)[nH]5)(CC3)CC4)cc2)[nH]1)C(C)C", "reportedValue": 70.2}
{"smilesString": "COC(=O)N[C@H](C(=O)N1CCC[C@H]1c1ncc(-c2ccc([C@H]3CC[C@H](c4cnc([C@@H]5CCCN5C(=O)[C@@H](NC(=O)OC)C(C)C)[nH]4)CC3)cc2)[nH]1)C(C)C", "reportedValue": 40.2}
